- target: Cyclin-dependent kinase 7 (Homo sapiens, UniProt P50613)
- Sequence (P50613 whole entry): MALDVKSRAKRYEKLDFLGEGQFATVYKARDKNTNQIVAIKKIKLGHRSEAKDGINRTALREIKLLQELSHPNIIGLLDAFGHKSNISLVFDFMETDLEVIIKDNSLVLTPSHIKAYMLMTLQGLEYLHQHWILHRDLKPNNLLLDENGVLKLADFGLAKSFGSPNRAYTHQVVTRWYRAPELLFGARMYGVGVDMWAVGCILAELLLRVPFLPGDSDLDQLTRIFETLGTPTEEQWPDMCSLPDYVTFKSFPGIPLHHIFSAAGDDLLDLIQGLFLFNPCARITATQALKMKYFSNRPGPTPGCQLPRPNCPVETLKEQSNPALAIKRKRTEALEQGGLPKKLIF
- test-protocol: % inhibition of CDK7 in the DiscoverX Kinase panel at 1.0 µM
readout: IC50
Quick note: number first, unit second.

Find the measured IC50 of CC#CC(=O)N1CC(N2CCC(c3cc(C)c4c(c3)Nc3ncnc(N5CCS(=O)(=O)CC5)c3[C@@H](C)O4)CC2)C1 with Cyclin-dependent kinase 7 (Homo sapiens, UniProt P50613) as test system.
3.8 nM
